- Tgt: human orexin 2 receptor (hOx2R) (Homo sapiens, UniProt O43614)
- Construct: expressed in transfected cells
- Sequence (O43614 whole entry): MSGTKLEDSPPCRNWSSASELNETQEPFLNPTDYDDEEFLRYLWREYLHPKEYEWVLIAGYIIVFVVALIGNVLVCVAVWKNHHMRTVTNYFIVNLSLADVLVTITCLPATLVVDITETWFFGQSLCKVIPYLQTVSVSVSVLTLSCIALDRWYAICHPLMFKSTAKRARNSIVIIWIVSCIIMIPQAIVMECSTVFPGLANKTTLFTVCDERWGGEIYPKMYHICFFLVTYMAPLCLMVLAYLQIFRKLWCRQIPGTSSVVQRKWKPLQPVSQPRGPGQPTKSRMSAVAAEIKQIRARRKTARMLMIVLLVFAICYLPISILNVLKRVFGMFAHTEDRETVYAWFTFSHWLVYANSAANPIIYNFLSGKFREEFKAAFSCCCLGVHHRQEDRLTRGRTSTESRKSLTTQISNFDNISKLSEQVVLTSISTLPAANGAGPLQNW
- Method summary: Radioligand binding assay ([125I]orexin A competition), hOx2R
- Recorded conditions: CHO or HEK cell membranes, 1 h room temperature
- Protocol: For crude cell membrane preparations, cells (CHO, Chinese hamster ovary or HEK, human embryonic kidney) expressing human orexin 1 or human orexin 2 receptors, were washed with HEPES (10 mM, pH 7.5), scraped off the culture plates with the same buffer, and centrifuged at 4° C. for 5 min at 2500×g. The cell pellet was either stored at −80° C. or used directly. […]
pKd: recorded values
Note on units: pKd is unitless, being -log10 of a concentration expressed in mol/L.

# Molecule, Tgt, pKd
data = [
    ("CN(C(=O)c1ccc2c(c1)OC(F)(F)O2)[C@H](CCNC(=O)c1cccn1C)Cc1ccccc1 [Example 107]", "human orexin 2 receptor (hOx2R) (Homo sapiens, UniProt O43614)", 6.79),
    ("Cc1cccc(C(=O)N(C)[C@H](CCNC(=O)c2ccccn2)Cc2ccccc2)c1 [Example 96]", "human orexin 2 receptor (hOx2R) (Homo sapiens, UniProt O43614)", 6.88),
    ("COc1cccc(C(=O)N(C)[C@H](CCNC(=O)c2ccccn2)Cc2ccccc2)c1 [Example 52]", "human orexin 2 receptor (hOx2R) (Homo sapiens, UniProt O43614)", 6.02),
]

In the following, a different molecule is considered.
Per the record, CN(C(=O)c1ccc2c(c1)OCO2)[C@H](CCNC(=O)c1cc2ccccc2[nH]1)Cc1ccccc1 [Example 14] has pKd of 6.28

----------
- Tgt: human orexin 2 receptor (hOx2R) (Homo sapiens)
- Construct: expressed in transfected cells
- Method summary: Radioligand binding assay ([125I]orexin A competition), hOx2R
- Recorded conditions: CHO or HEK cell membranes, 1 h room temperature
pKd: recorded values
Note on units: pKd is unitless, being -log10 of a concentration expressed in mol/L.

Worked cases, pKd given:
# Chemical structure, pKd
measured = [
    ("CN(C(=O)c1ccc2c(c1)OCO2)[C@H](CCNC(=O)c1cc2ccccc2n1C)Cc1ccccc1", 6.33),
    ("CN(C(=O)c1ccccc1)[C@H](CCNC(=O)c1cccc2c1OCC2)Cc1ccccc1", 6.94),
    ("CCN(C(=O)c1cc(C(F)(F)F)cc(C(F)(F)F)c1)[C@H](CCNC(=O)c1ccccn1)Cc1ccccc1", 7.23),
    ("CN(C(=O)c1ccc2[nH]ccc2c1)[C@H](CCNC(=O)c1nc2ccccc2n1C)Cc1ccccc1", 7.64),
    ("CN(C(=O)c1cccc2[nH]ccc12)[C@H](CCNC(=O)c1ccccn1)Cc1ccccc1", 7.28),
    ("CN(C(=O)c1ccccc1)[C@@H](CCNC(=O)c1ccccn1)Cc1ccccc1", 5.12),
    ("CN(C(=O)c1cc(F)cc(F)c1)[C@H](CCNC(=O)c1ccccn1)Cc1ccccc1", 6.33),
]

In the following, a different compound is considered.
Per the record, COc1cc(OC)cc(C(=O)N(C)[C@H](CCNC(=O)c2cccn2C)Cc2ccccc2)c1 has pKd of 8.22

----------
- Tgt: human orexin 1 receptor (hOx1R) (Homo sapiens, UniProt O43613)
- Construct: expressed in transfected cells
- Sequence (O43613 whole entry): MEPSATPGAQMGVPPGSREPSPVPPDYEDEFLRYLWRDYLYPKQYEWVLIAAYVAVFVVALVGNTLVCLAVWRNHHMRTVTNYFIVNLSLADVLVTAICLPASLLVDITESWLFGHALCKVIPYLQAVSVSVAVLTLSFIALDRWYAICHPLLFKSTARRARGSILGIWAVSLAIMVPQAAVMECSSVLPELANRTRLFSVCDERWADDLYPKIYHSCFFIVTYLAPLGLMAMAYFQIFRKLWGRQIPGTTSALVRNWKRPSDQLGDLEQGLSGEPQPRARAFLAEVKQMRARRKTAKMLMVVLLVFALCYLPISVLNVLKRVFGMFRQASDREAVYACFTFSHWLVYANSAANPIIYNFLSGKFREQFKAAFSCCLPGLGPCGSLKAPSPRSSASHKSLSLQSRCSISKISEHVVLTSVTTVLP
- Method summary: Radioligand binding assay ([125I]orexin A competition), hOx1R
- Recorded conditions: CHO or HEK cell membranes, 1 h room temperature
- Protocol: For crude cell membrane preparations, cells (CHO, Chinese hamster ovary or HEK, human embryonic kidney) expressing human orexin 1 or human orexin 2 receptors, were washed with HEPES (10 mM, pH 7.5), scraped off the culture plates with the same buffer, and centrifuged at 4° C. for 5 min at 2500×g. The cell pellet was either stored at −80° C. or used directly. […]
pKd: recorded values
Note on units: pKd is unitless, being -log10 of a concentration expressed in mol/L.

# Compound, pKd
rows = [
    ("Cc1cc(C)cc(C(=O)N(C)[C@H](CCNC(=O)c2cccn2C)Cc2ccccc2)c1 [Example 125]", 6.75),
    ("CCCOc1cccc(C(=O)N(C)[C@H](CCNC(=O)c2cccn2C)Cc2ccccc2)c1 [Example 126]", 5.61),
    ("CN(C(=O)c1cccc2ccccc12)[C@H](CCNC(=O)c1ccccn1)Cc1ccc(F)cc1 [Example 28]", 6.24),
    ("CN(C(=O)c1cc(C(F)(F)F)cc(C(F)(F)F)c1)[C@H](CCNC(=O)c1nc2ccccc2n1C)Cc1ccccc1 [Example 12]", 5.97),
    ("COc1ccc(C(=O)N(C)[C@H](CCNC(=O)c2ccccn2)Cc2ccccc2)cc1 [Example 42]", 5.76),
    ("CN(C(=O)c1ccc2ccccc2c1)[C@H](CCNC(=O)c1ccccn1)Cc1ccc(Cl)cc1 [Example 53]", 5.47),
    ("CCN(C(=O)c1ccc2c(c1)OCO2)[C@H](CCNC(=O)c1ccccn1)Cc1ccccc1 [Example 8]", 6.57),
    ("COc1cc(Cl)cc(C(=O)N(C)[C@H](CCNC(=O)c2cccn2C)Cc2ccccc2)c1 [Example 106]", 7.30),
]

Per the record, COc1cccc(C(=O)N(C)[C@H](CCNC(=O)c2ccccn2)Cc2ccccc2)c1 [Example 52] has pKd of 5.62

Per the record, CN(C(=O)c1ccc2c(c1)OCO2)[C@H](CCNC(=O)c1ccc2c(c1)OCO2)Cc1ccccc1 [Example 62] has pKd of 6.65

Per the record, CN(C(=O)c1cccc2ccccc12)[C@H](CCNC(=O)c1nc2ccccc2n1C)Cc1ccc(Cl)cc1 [Example 26] has pKd of 5.48

Per the record, CN(C(=O)c1ccc2c(c1)OCO2)[C@@H](CCNC(=O)c1ccccn1)Cc1ccccc1 [Example 47] has pKd of 4.91

Per the record, CN1CCc2cc(C(=O)N(C)[C@H](CCNC(=O)c3ccccn3)Cc3ccccc3)ccc21 [Example 55] has pKd of 7.12

Per the record, COc1cccc(C(=O)N(C)[C@H](CCNC(=O)c2nc3ccccc3n2C)Cc2ccccc2)c1 [Example 79] has pKd of 7.14

Per the record, CN(C(=O)c1cccc2c1OCO2)[C@H](CCNC(=O)c1nc2ccccc2n1C)Cc1ccccc1 [Example 19] has pKd of 6.10

Per the record, Cc1cc(C)cc(C(=O)N(C)[C@H](CCNC(=O)c2ccccn2)Cc2ccccc2)c1 [Example 97] has pKd of 7.34

Per the record, CN(C(=O)c1ccccc1)[C@H](CCNC(=O)c1cccc2c1OCC2)Cc1ccccc1 [Example 67] has pKd of 5.96
